target: thyroxine antibodies immobilized within the pores of stainless steel disc-shaped monoliths; experiment: Scatchard plot evaluation of binding constant, stainless steel disc-shaped monoliths; conditions: total liquid volume 0.5 ml; disc-shaped monolith, 0.5 mg protein per monolith; read-out: binding constant K (Scatchard plot)
endpointName: Kd (nM)

1. N[C@@H](Cc1cc(I)c(Oc2cc(I)c(O)c(I)c2)c(I)c1)C(=O)O	1
